Test Method Notes: in vitro
Assay type: cell-based
Condition Info: human, 50 μM, 48 h, percent of DMSO control; read-out: HeLa cell viability at 50 μM (%) (converted)
Protocol: HeLa299 cells were inoculated into clear, flat 96-well plates (Nunc, Delta surface, Thermo Fischer Scientific) with a density of 7,000 cells per well and cultured overnight at 37°C with 5% CO2 in […] supplemented with 10% FBS and 2 mM L-glutamine. […] The absorbance of each well was then read at 475 nm and 660 nm with a Tecan Infinite m200 plate reader (Tecan, Männedorf, Switzerland). […] Average blank control-well readings were subtracted from those containing cells. […]
Threshold 20%. viability at 50 µM below it: Fulfilled. viability at 50 µM at it or above: Not fulfilled.

>>> classification("COC1=CC(=O)c2c(O)c3c(c(O)c2C1=O)C[C@](C)(O)C[C@@H]3O [Compound 5, (1S,3S)-austrocortirubin]")
"Fulfilled"
>>> classification("C[C@]1(O)Cc2c(O)c3c(c(O)c2[C@@H](O)C1)C(=O)C=C(NCCc1ccc(O)cc1)C3=O [Compound 3]")
"Not fulfilled"
>>> classification("COCCNC1=CC(=O)c2c(O)c3c(c(O)c2C1=O)C[C@](C)(O)C[C@@H]3O [Compound 1]")
"Not fulfilled"
>>> classification("CC(C)(C)NC(=O)NCCc1c[nH]c2c1C(=O)C1=C(NC=CS1(=O)=O)C2=O [Compound 8]")
"Fulfilled"
>>> classification("NCCc1c[nH]c2c1C(=O)C1=C(NC=CS1(=O)=O)C2=O [Compound 10, thiaplakortone A]")
"Fulfilled"
>>> classification("C[C@]1(O)Cc2c(O)c3c(c(O)c2[C@@H](O)C1)C(=O)C=C(NCCc1ccccc1)C3=O [Compound 2]")
"Not fulfilled"
>>> classification("NCCc1c[nH]c2c1C(=O)C1=C(NCCS1(=O)=O)C2=O [Compound 6]")
"Not fulfilled"
>>> classification("CC(=O)NCCc1c[nH]c2c1C(=O)C1=C(NC=CS1(=O)=O)C2=O [Compound 7]")
"Fulfilled"
>>> classification("CCCCNC(=O)NCCc1c[nH]c2c1C(=O)C1=C(NC=CS1(=O)=O)C2=O [Compound 9]")
"Fulfilled"
>>> classification("C[C@]1(O)Cc2c(O)c3c(c(O)c2[C@@H](O)C1)C(=O)C=C(NCCN1CCOCC1)C3=O [Compound 4]")
"Not fulfilled"

* * *

Tested on: mCherry expressing C. trachomatis
Test Method Notes: Doxycycline susceptibility, large inclusion count by live mCherry imaging
Type: cell-based
Condition Info: Chlamydia trachomatis, HeLa, 48 h, read-out: EC50 with 95% confidence interval
Method: HeLa 299 cells, cultured to 70% confluence were harvested and seeded into 96-well plates (clear, flat, Nunclon Delta coated, Nunc, Thermo Fischer Scientific, Waltham, MA, USA) at a density of 10,000 per well in culture media (DMEM or RPMI 1640 supplemented with 10% FBS, 2 mM L-glutamine and 50 μg/ml gentamicin). […] An inclusion size cutoff was determined based on the 48 hpi Chlamydia inclusions to include normally developed Chlamydia inclusions and exclude fluorescent artifacts from the analyses. […]
Readout Name: EC50 (nM)

>>> observed_value("C[C@H]1c2cccc(O)c2C(=O)C2=C(O)[C@]3(O)C(=O)C(C(N)=O)=C(O)[C@@H](N(C)C)[C@@H]3[C@@H](O)[C@@H]21")
32.8
